Assay: Cytotoxicity against HELF cells assessed as after 3 days by Coulter counting analysis
Format: cell-based
Details: human, HELF cells
test.readout: CC50 at 72 h

item.smiles: C[C@H](NC(=O)[C@]1(Cc2ccccc2)CCN1C(=O)CCc1ccccc1)C(N)=O
CC50 at 72 h: > 100 µM

We now examine a further compound.
Entry under test: `C[C@H](NC(=O)[C@]1(Cc2ccccc2)CCN1C(=O)OCc1ccc([N+](=O)[O-])cc1)C(N)=O` . Its CC50 at 72 h was > 100 µM

====

List of MCC at 72 h values.
Assay: Cytotoxicity against HELF cells assessed as after 3 days by Coulter counting analysis
Type: cell-based
Settings: human, HELF cells
Express your answer in µM, writing the number without its unit.

Entry under test: `CC(C)C[C@H](NC(=O)[C@]1(Cc2ccccc2)CCN1C(=O)OCc1ccccc1)C(N)=O` . Its MCC at 72 h was 100
